Test system: TK-10 renal
Experiment: NCI tumour cell line growth inhibition, 48 h; in the data active = GI50 below about 0.43 µM; inactive = the rest
Labels: class 1 = active, class 0 = inactive

* CCC(=O)c1c(C(F)(F)F)n([O-])c2cc(N3CCNCC3)c(F)cc2[n+]1=O | class 0
* O=C(/C=C/c1cccs1)c1ccc(Cl)cc1Cl | class 0
* Cn1cc(-c2nonc2-c2cn(C)c3ccc(F)cc23)c2ccccc21 | class 0
* O=c1oc2ccc(Br)cc2c(=O)n1-c1ccc(Br)cc1F | class 0
* CC(=O)OCc1cnc2c3c(nc4ccccc4c13)C(=O)c1cccnc1-2 | class 1

----------
Entries and their measured TGI follow.
System: SF-539 CNS
Experiment: NCI tumour cell line growth inhibition, 48 h
attribute-measured: TGI

* COc1ccccc1-c1cc(=O)c2c(C)ccnc2[nH]1 | > 100 µM
* O=[As]O | > 54.3 µM
* CC(C)(Oc1ccc(Cl)cc1)C(=O)N(C(=O)N1CCN(c2ccccc2)CC1)c1ccccc1 | > 100 µM
* C[C@]12CCC3c4ccc(O)cc4CC[C@H]3C1CC(=O)NC2=O (stereo partly drawn) | > 10 µM
* COC(=O)/C(=N/NC(N)=O)C(C(=O)C(=O)Nc1ccc(C)cc1)c1nc2ccc(C(=O)c3ccccc3)cc2[nH]c1=O (stereo not drawn) | > 100 µM
* COc1ccc(C(CC(C)=O)c2c(O)c3ccccc3oc2=O)cc1OC (stereo not drawn) | > 100 µM
* C1OC1C1CO1 (stereo not drawn) | > 100 µM
* COC12OCCN(CCO)C1=CC(=O)C1(C)N=NC(C)C12 (stereo not drawn) | > 100 µM
